From: the supplement of paper PMC9170038

Tested on: K4 kissing-loop RNA reporter;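 note: bound reporter read as fluorescence of individual clusters on recovered sequencing chips by microscopy, with normalized cluster intensities fitted with a binding model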
Assay: apparent KD of K4 kissing-loop reporter; higher = weaker reporter binding
Settings: Eterna round: R107; input ligand: theophylline 20 uM
apparent KD of K4 kissing-loop reporter vs 300 nM: at or above is T, below is F.

Chain Sequence | Assigned Category
CUAUGGAAACAUAGUGAGCGGGAAACCGAUACCAGUAUGGAAACAUACCCUUGGCAGCGGAAUGCUCAAACGGAGUGAUGUUCCG [Theophylline A K4 22] | F
ACGUAUAUCAGAGGAUAUCGUAUUAAUAUUUUAUCUAUAUAUAUAUGCAGUGAUGUUGCUAUAAUUCGAGAAGGCUGAUUUACGA [JR_ExcFMNB_Sub011] | F
GCUAGGCAUGCAGGAUAUCGCCGAGUGAUGUUCGGUAGGCCGCUUUCUUUCUUUCUUUGCGGCCAGCGAGAAGGGCAUGCCUAGC | F
GUAUAUUAGGGAGACCUAAUAUAAAUAGAAGGAGCGUAGGAAACUACAGGUAGGUCGCUAAAUAUACAGUGAUGUUGUAUAAUGG [arg a same] | F
CCAGGACGAUGAGGAUGAUGAAUUACUGAAGGAGCGCAUAUGGUUGCAGGUAGGUCGCGGUGAACAAGUAUAGUGAUGUUAUGCC [SSArgA.V] | T
CCUAUCUCAUACGAUACCAGUGAAUUUAUGUUUAUUAGCAGUGAUGUUGCGUUCCAAGUACACCCUUGGCAGCGUAUGGGAUAGG [Ex Theophylline B K4 24] | F
CCCGUGGGUUUGAGAGGGCUUGUGGGAAGUAAGGAUAUUUAGGGAGAAAGAAGGUACUAUAGAAUAUAGUGAUGUUAUAUAUGGG [#06 K4 FMN A Same State] | F
UCCUACGAGGUAACGUGGAUAUCUCGUUGCAAGGAUAUCUGGAAACAGAGAAGGUGCAACAUUAUCAGCAGUGAUGUUGCUGACC | T
AGUACAGACACGGCCGCCACUCAGAAGAAGACAGUAGUGAUGUUACUGAUGGUGAGAAUAAUAAAGAGGACCGGGUGUUGUGCAA [#04 K4 Tryptophan B Same State] | F
AGGUGAGACUGAAGGAGCGAUCGCGCUAGUGAUGUUGGCGAGCAUGACAAAGUCAUGCACGAUCAGGUAGGUCGCAGUCUUACUC [Omei KL Arginine B SS B v1] | F
UAGGAGUGAUGUUCCAUGUCUUGAGCCGAAGGAGCGCCUUUCUAGGCAGGUAGGUCGCGGCAGAAGGUACCAGUGAUGUUGGAAA [Same State Arginine A GF8] | F
AUUAAUUUCAGAGGAUAUCGUAAUUUUAUUUAAUUUAUUCAUUUAUGCAGUGAUGUUGCUAAUAUUCGAGAAGGCUGAUUUAUAA [JR_ExcFMNB_Sub007] | F
CGCGUUGGUUGAGAGGUUGGCGCGAAUGAUACCAGUAUAUAAGAAUACCCUUGGCAGCAUAAGAAAGAUAUAGUGAUGUUGUAUA [SSTheophA.I] | F
GGGAGGAGUGGUGUUGAUUAGGGAGCGGAAGGAGCGCCGAAGAAGGCAGGUAGGUCGCCGGAAUAUAGUGAUGUUAUAUAGAGGG [ExArg.G] | F
GGGAGAAGUGCGGCCGCCACUGAGAAAGAAGAAGAAUAUAGUGAUGUUAUAUAGGAAAGGAAGAACAGGACCGGGCAUAAGAGGG [SSTryptB.A] | F
UGUCAUUGGUCGGCCGCCACUUCAUAUAGAGUGAUGUUCUGAAAGACGGAUCGAAAGAUCUGUCGAAGGACCGGGACCGAUGACU [FiskerMod 12 - Jieux - Same State - Tryptophan B] | T
GAUUACAACAGAGUGAUGUUCUGACUUUCUCGAGGACCGGUACGGCCGCCACUCGUUAAACAAAGUGGUUUGCCAAGGCCAACUU | F
AAGUGUGUGGCGGCCGCCACUAGAAUCCAGUGAUGUUGGAGUUAUCAUGUAAAUGAUAAUCAACAUAGGACCGGGCCAUAUAGAA [Same State - Tryptophan B (Freestyle 8)] | T
GAUGAUCGCGCGGCCGCCACUGGUCAGUGAUGUUGACAUUAAUGCGCCGAGUAGUAACGGCGCAGUAGGACCGGGCGCGAUGUAG [#13 K4 Tryptophan B Same State] | F
UGAUACCAGACGGCCGCCACUCCCGUAAGUCAAAGACUUACGAAGAGAAUCGUCCAGUGAUGUUGGAGGACCGGGUCUGGUAUCU [FiskerMod 11 - Jieux - Exclusion - Tryptophan B] | T
UUAUAUUUUAUAUUUAGUAGAGCUCUAGCUCGAGGACCGGUACGGCCGCCACUCGAGUGAUGUUCGAGUGGGUGAGCUCUACAUU [AK3 EXC Tryptophan A] | F
GGAUAGGACAGAGGAUAUGGUAGCUAGGCAAGACAAAAGUCUUGUCUAGCAAUGAGGAGUGAUGUUCCAGAAGGCUGUCCUAUCG [FmnBX 4 - #SwitchBubble #StaticStem] | T
AAGGUCACCACUACAGUGAUGUUGUGGGAGCAGGAUAUGCAGAAAUGCAGAAGGGCUCGCUCCCGGUGACCGAAUGAAACAUUCA [Omei KL FMN A SS A v5] | T
